- Test system: MDA-MB-231
- Assay protocol: MTs growth inhibition assay, MDA-MB-231
- Type: cell-based
- Condition context: Homo sapiens, Wnt/β-catenin-hyperactive, 72 h, read-out: MTs IC50 ± SD MDA-MB-231
Result type: pIC50
Bear in mind: pIC50 is minus log10 of a mol/L concentration; give just that figure.

The compound listed as Cl.Cl.O=C(Nc1ccc(O[C@@H]2CCNC2)c(-c2cccc(-c3nn[nH]n3)c2)c1)c1ccc(O[C@H]2CCNC2)c(-c2ccc(F)c(F)c2)c1 [Compound 4, dihydrochloride] has a reported pIC50 of 4.14

###

- Test system: SW480
- Assay protocol: MTs growth inhibition assay, SW480
- Type: cell-based
- Condition context: Homo sapiens, Wnt/β-catenin-hyperactive, 72 h, read-out: MTs IC50 ± SD SW480
Result type: IC50 (µM)
All answers are understood in µM, so give the number only.

The molecule listed as Cl.Cl.O=C(Nc1ccc(O[C@@H]2CCNC2)c(-c2cccc(-c3nn[nH]n3)c2)c1)c1ccc(O[C@H]2CCNC2)c(-c2ccc(F)c(F)c2)c1 [Compound 4, dihydrochloride] has a reported IC50 of 41

Data origin, for the record: patent US20220411414A1
